# Tested on: SK-MEL-2 melanoma
# assay-info: NCI tumour cell line growth inhibition, 48 h
value-kind: TGI

Known TGI results, listed for orientation:
compound: Cc1ccc(Cl)cc1Nc1nc(C(F)(F)F)ccc1C(=O)N1CCN(c2cccc(Cl)c2)CC1
TGI: > 100 µM
//
compound: Cc1[nH]c2ccccc2c1-c1cc(-c2cc(-c3c(C)[nH]c4ccccc34)on2)no1
TGI: > 100 µM

*Q* Name the reported TGI value associated with the compound Cc1ccc(-c2c3c(n(C4OC(CO)C(O)C(O)C4O)c(=S)c2C#N)CC(C)(C)CC3=O)cc1 (centres undefined)
*A* > 100 µM

*Q* Name the reported TGI value associated with the compound CC(=O)OC12c3ccccc3-c3ccccc3C1C1C(=O)N(C)C(=O)C12Cl (centres undefined)
*A* > 10 µM
